Assay: M. tuberculosis H37Rv growth inhibitors, H37Rv strain (AID 1626);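 also: bacteria incubated seven days before Alamar blue readout; 0% = bacteria only wells and 100% = bacteria with antibiotic wells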
Conditions: active compounds read high, concentration not given here
Out of some 220,000 compounds screened, about 2,000 (0.91%) were called active. Not shown: some 2% with an inconclusive outcome. The list is a sample of the results. Measured potencies and affinities stand elsewhere.
MEASUREMENT NAME: inhibition (%)
Give the quantity in %, number only.

Entry Cc1cc2nc(-c3ccc(SCC(=O)NC(C)C)nc3)[nH]c2cc1C needs its inhibition filled in; supply it.
1.74

Identify measured inhibition corresponding to Cc1ccc(/C=N/N2CCN(c3ccccc3)CC2)cc1
-2.14

Item CC(=O)CSc1ccc(-c2nc3cc(C)c(C)cc3[nH]2)cn1 : provide inhibition
11.7

Using the record for CCc1nnc(NC(=O)CSc2ccc(-c3nc4ccccc4[nH]3)cn2)s1 , state its measured inhibition.
-3.06

For Cc1ccc2nc(-c3ccc(SCC(=O)Nc4nc(C)cs4)nc3)[nH]c2c1 , write its inhibition.
0.98

Annotate the compound CCOC(=O)c1c(-c2ccc(OC)cc2)csc1/N=C/C1=C(O)CCCC1=O with its measured inhibition.
4.93

Give inhibition for O=C1CCCC(O)=C1C=Nc1cccc(C(F)(F)F)c1
8.3

Read off the recorded inhibition for COc1ccccc1NC(=O)CCC(=O)N/N=C(/C)c1ccc(C)cc1
0.52

Consider the compound Cc1nn(-c2ccc(F)cc2)c2sc(C(=O)OC3CCOC3=O)cc12 (stereo unspecified) and give its recorded inhibition.
-1.05

Report measured inhibition; entry is O=C1CCCC(O)=C1C=Nc1ccc(O)cc1
3.95

Tell us which inhibition value is on record for COc1cccc(Nc2nc(N)nc(CCl)n2)c1
75.6

###

Each entry below carries its reported inhibition.
Test: M. tuberculosis H37Rv growth inhibitors, H37Rv strain (AID 1626);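 also: bacteria incubated seven days before Alamar blue readout; 0% = bacteria only wells and 100% = bacteria with antibiotic wells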
Details: active compounds read high, concentration not given here
Out of some 220,000 compounds screened, about 2,000 (0.91%) were called active. Inconclusive results (about 2%) are left out. A selection follows. Results with a measured potency or affinity are listed apart.
Numeric only. Scale: %

COMPOUND	MEASUREMENT NAME	UNIT ABBREV	READOUT VALUE
O=C(C1CCC(CNc2c(N3CCOCC3)c(=O)c2=O)CC1)N1CCN(c2ccccc2)CC1 (stereo unspecified)	inhibition	%	-8.11
CCC(=O)OCCNc1cc(Sc2nc3ccccc3[nH]2)c2nonc2c1[N+](=O)[O-]	inhibition	%	42.4
Cc1noc(C)c1S(=O)(=O)N1CCCCC1	inhibition	%	-4.38
COc1ccc(CCNC(=O)CSc2nnc(-c3ccc(F)cc3)o2)cc1OC	inhibition	%	-1.7
O=C(CSc1nnc(-c2ccc(F)cc2)o1)NC1CCCCC1	inhibition	%	-0.23

Kindly indicate its recorded inhibition. Item: Cc1cc(CNC(=O)Cn2nc(C)c([N+](=O)[O-])c2C)c2ccccc2n1
-7.05

Quickly give me recorded inhibition for CC1(C)C2CCC1(C)C(Nc1ccccc1)C2 (stereo unspecified)
3.82

Given CC(C)(C)Nc1c([N+](=O)[O-])c(=O)sc2ccccc12 , respond with its inhibition.
-10.8

Output measured inhibition for this item: Cc1cc(NC(=O)CSc2nc(C(C)C)nc3c2c(=O)n(C)c(=O)n3C)no1
-4.22

Quote inhibition reported for C=CC(=O)NC1CC2CCC1(C)C2(C)C (stereo unspecified) please.
6.5

Given COC(=O)CN1C(=O)[C@@H]2[C@H](C1=O)[C@@H]1CC(C(=O)OC)=C[C@@H](C(=O)OC)[C@@H]3C1=C(C(=O)[C@@]3(C)NC(=O)c1ccccc1)[C@@H]2C , respond with its inhibition.
-6.86

Tell us which inhibition value is on record for CC(C)CNS(=O)(=O)c1ccc(CCC(=O)N2CCN(c3ccccc3)CC2)cc1
0.62

In one line, give reported inhibition of the entry O=[N+]([O-])c1c(NCCCO)cc(Sc2ccc(Cl)cc2)c2nonc12 .
53.5

Give me measured inhibition, please, for this compound: O=C(Nc1ccc(-c2nnn(CC(=O)N3CCN(C(=O)c4ccco4)CC3)n2)cc1)c1ccccc1F
-1.57

Report measured inhibition; entry is Oc1cccnc1CCc1ccccc1
-10.6

// fetch inhibition given entry Cn1c(N)c(C(=O)COC(=O)C2CC(=O)N(Cc3ccccc3)C2)c(=O)n(C)c1=O (stereo unspecified)
0.39

Query inhibition for COc1ccccc1S(=O)Cc1ccc(C(=O)O)o1 (stereo unspecified)
-6.58

Identify measured inhibition associated with CC(=O)OCCCNc1cc(Sc2ccc(Cl)cc2)c2nonc2c1[N+](=O)[O-]
8.58

Tell us which inhibition value is on record for O=CC1=C(N2CCOCC2)/C(=C\c2ccccc2)CC1
0.77

Kindly indicate its recorded inhibition. Item: CC(=O)OCCCNc1cc(Sc2ccc(C)cc2)c2nonc2c1[N+](=O)[O-]
13.8

Query inhibition for O=[N+]([O-])c1c(NCCCO)cc(SCc2ccco2)c2nonc12
74.7
